- System tested: Polyunsaturated fatty acid 5-lipoxygenase (Homo sapiens) (UniProt P09917)
- Sequence (P09917 whole entry): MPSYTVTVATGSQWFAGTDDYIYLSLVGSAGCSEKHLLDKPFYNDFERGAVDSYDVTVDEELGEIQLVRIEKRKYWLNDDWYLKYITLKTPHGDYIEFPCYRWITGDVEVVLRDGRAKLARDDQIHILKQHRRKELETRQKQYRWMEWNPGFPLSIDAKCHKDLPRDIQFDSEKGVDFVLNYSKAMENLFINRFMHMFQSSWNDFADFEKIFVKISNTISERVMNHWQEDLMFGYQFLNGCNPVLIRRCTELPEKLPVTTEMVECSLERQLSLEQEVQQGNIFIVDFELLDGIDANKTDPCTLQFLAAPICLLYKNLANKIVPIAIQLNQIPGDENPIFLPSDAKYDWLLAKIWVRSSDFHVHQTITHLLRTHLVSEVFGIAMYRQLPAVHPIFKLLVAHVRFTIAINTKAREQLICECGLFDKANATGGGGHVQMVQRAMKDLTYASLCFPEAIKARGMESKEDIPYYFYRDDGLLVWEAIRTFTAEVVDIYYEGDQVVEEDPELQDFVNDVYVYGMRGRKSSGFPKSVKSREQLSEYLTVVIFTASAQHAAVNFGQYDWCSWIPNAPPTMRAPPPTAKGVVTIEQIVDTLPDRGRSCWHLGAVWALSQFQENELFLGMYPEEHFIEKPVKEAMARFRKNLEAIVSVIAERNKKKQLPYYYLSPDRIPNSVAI
- Test details: Inhibitory concentration required against 5-lipoxygenase activity in cytosolic fractions of human neutrophils
- Condition notes: concentration not given here
Each record here notes measured inhibition.
Answer with the figure and its unit, nothing else.

Would you please look over these solved cases?
INSERT INTO assay_data (structure_smiles_string, system_tested, obs_value) VALUES
  ('COc1ccc(C(=O)/C=C/c2ccc(C(F)(F)F)cc2)c(OC)c1', 'Polyunsaturated fatty acid 5-lipoxygenase (Homo sapiens) (UniProt P09917)', '21.7%'),
  ('COc1ccc(C(=O)/C=C/c2ccc(N(C)C)cc2)cc1OC', 'Polyunsaturated fatty acid 5-lipoxygenase (Homo sapiens) (UniProt P09917)', '37.9%'),
  ('COc1cc2cc(/C=C/C(=O)c3ccc(C)cc3)c(Cl)nc2cc1OC', 'Polyunsaturated fatty acid 5-lipoxygenase (Homo sapiens) (UniProt P09917)', '61%'),
  ('O=C(/C=C/c1cc2ccccc2nc1Cl)c1ccc(C(F)(F)F)cc1', 'Polyunsaturated fatty acid 5-lipoxygenase (Homo sapiens) (UniProt P09917)', '32.9%');

From here, focus on the item given below.
The compound listed as O=C(/C=C/c1cc2ccccc2nc1Cl)c1cccnc1 has a reported inhibition of 30.2%
